A collection of compounds and their measured activation at 10 µM
Molecular target: IC-GPCR2 (Homo sapiens, UniProt Q8TDV5, S309L)
Construct: expressed in transfected cells
Sequence (Q8TDV5 1-335 S309L): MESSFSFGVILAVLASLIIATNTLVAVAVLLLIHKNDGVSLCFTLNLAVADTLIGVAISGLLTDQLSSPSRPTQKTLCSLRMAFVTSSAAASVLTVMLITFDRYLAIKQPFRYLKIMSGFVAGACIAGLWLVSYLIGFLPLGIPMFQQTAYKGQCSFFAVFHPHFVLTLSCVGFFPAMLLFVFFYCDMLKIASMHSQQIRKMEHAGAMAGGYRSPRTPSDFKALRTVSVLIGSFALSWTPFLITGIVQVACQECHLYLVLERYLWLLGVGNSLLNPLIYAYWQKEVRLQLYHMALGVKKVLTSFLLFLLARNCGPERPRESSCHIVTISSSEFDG
Test: Stimulation of cAMP in CHO cells stably expressing IC-GPCR2 (HTRF cAMP assay)
Assay type: cell-based
Conditions: 0.5 h, 30 minutes, IC-GPCR2 stably expressing CHO cells, read-out: Activity at 10 uM (% change in FRET signal from DMSO control)

Here's what some known entries look like.
Reported activation at 10 µM, compound CC(C)(C)OCC(=O)N1CCC(c2nc(COc3ccc(-n4cnnn4)cc3)cs2)CC1 : ____ 57%

Same question for CS(=O)(=O)c1ccc(OCc2csc(C3CCN(C(=O)Oc4ccc(F)cc4)CC3)n2)cc1 please. 63%

Same question for CC(C)c1cnc(N2CCC(c3nc(COc4ccc(-n5cnnn5)cc4F)cs3)CC2)nc1 please. 79%

Would you kindly look at the next entry?
Reported activation at 10 µM, compound COC(=O)C(=O)N1CCC(c2nc(COc3ccc(-n4cnnn4)cc3)cs2)CC1 : ____ 67%

* * *

biological target: IC-GPCR2 (Homo sapiens, UniProt Q8TDV5, S309L); construct: expressed in transfected cells; assay: Stimulation of cAMP in CHO cells stably expressing IC-GPCR2 (HTRF cAMP assay); assay type: cell-based; conditions: 0.5 h, 30 minutes, IC-GPCR2 stably expressing CHO cells, read-out: Activity at 10 uM (% change in FRET signal from DMSO control)
MEASUREMENT KIND: activation at 10 µM (%)
Write the value in % as a bare number.

Reported activation at 10 µM, compound CS(=O)(=O)c1ccc(OCc2csc(C3CCN(C(=O)OC45CC6CC(CC(C6)C4)C5)CC3)n2)cc1 : ____ 23

Same question for CC(C)(C)OC(=O)N1CCC(c2nc(COc3ccc(C(=O)O)cc3)cs2)CC1 please. 24

* * *

target: IC-GPCR2 (Homo sapiens, UniProt Q8TDV5, S309L); construct: expressed in transfected cells; experiment: Stimulation of cAMP in CHO cells stably expressing IC-GPCR2 (HTRF cAMP assay); type: cell-based; conditions: 0.5 h, 30 minutes, IC-GPCR2 stably expressing CHO cells, read-out: Activity at 10 uM (% change in FRET signal from DMSO control)
// -1 strictly below 40% in activation at 10 µM; 1 otherwise

Is activation at 10 µM for CC(C)OC(=O)N1CCC(c2nc(COc3ccc(S(C)(=O)=O)cc3F)cs2)CC1 at or above 40%? 1

Same question for CS(=O)(=O)c1ccc(OCc2csc(C3CCN(c4nc5ccccc5o4)CC3)n2)cc1 please. -1

Same question for CC(C)(C)OC(=O)N1CCC(C)(c2nc(COc3ccc(S(C)(=O)=O)cc3)cs2)CC1 please. 1

Same question for CC(C)(C)OC(=O)N1CCC(c2nc(CNc3ccc(F)nc3)cs2)CC1 please. 1

Same question for FC(F)(F)c1cnc(N2CCC(c3nc(COc4ccc(-n5cnnn5)cc4)cs3)CC2)nc1 please. 1

Same question for c1cc(-n2cnnn2)ccc1OCc1csc(C2CCN(c3nc(C4CC4)no3)CC2)n1 please. 1

Same question for Cc1ccc(S(=O)(=O)N2CCC(c3nc(COc4ccc(-n5cnnn5)cc4)cs3)CC2)cc1 please. -1

This collection of values is drawn from patent US9925189B2.
